molecular target: full-length NS3/NS4A complex (Hepatitis C virus genotype 1a); assay: biochemical; details: enzyme 50 nM, substrate 100 nM, 37° C., 40 minutes; read-out: NS3 IC50
Sequence (P27958 1027-1657): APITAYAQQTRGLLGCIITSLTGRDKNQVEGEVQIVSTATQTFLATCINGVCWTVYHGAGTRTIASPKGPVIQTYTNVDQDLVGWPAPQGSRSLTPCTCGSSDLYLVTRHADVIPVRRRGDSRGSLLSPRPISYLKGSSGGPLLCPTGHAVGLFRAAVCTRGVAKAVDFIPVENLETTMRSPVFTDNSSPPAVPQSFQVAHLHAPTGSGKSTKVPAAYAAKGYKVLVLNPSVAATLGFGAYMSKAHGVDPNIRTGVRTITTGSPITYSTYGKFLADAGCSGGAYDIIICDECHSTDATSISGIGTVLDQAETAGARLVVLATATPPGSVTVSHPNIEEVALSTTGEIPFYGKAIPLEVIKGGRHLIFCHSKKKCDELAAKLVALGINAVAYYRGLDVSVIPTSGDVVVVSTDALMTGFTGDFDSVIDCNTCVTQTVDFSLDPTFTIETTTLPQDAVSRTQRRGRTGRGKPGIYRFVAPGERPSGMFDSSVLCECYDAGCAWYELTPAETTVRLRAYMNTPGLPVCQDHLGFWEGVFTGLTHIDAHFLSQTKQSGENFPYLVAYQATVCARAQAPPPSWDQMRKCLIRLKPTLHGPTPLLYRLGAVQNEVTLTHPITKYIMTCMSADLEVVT
Sequence (P27958 1658-1711): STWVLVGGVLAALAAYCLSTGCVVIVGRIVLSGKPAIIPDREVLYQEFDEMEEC
Non-standard residues stand in square brackets, D forms with d. Residues, ends and D or L forms follow the SMILES beside them. *: point of attachment. Hyp = O=C(O)[C@@H]1C[C@@H](O)CN1; Abu = CC[C@H](N)C(=O)O; tBu = CC(C)(C)*
For each entry below, report its IC50 value.
Give bare numbers, in µM.

# compound, IC50, µM
measured = [
    ("CC(C)(C)OC(=O)N[C@@H](CCC(=O)O)C(=O)N1C[C@H](OC(C)(C)C)C[C@H]1C(=O)NC(CC(F)(F)F)C(=O)O (some centres unmarked)", 150),
]

Supply measured IC50 of CC[C@H](NC(=O)[C@@H]1C[C@@H](OC(C)(C)C)CN1C(=O)[C@@H](NC(C)=O)C(C)C)C(=O)O [Compound 18] (Ac-Val-[Hyp](tBu)-[Abu]-OH) in your reply.
30
